Listing of recorded Ki by entry.
- Target Of Assay: GSK3β (H350L) (Homo sapiens (Human))
- Sequence (P49841 whole entry, stated change not applied): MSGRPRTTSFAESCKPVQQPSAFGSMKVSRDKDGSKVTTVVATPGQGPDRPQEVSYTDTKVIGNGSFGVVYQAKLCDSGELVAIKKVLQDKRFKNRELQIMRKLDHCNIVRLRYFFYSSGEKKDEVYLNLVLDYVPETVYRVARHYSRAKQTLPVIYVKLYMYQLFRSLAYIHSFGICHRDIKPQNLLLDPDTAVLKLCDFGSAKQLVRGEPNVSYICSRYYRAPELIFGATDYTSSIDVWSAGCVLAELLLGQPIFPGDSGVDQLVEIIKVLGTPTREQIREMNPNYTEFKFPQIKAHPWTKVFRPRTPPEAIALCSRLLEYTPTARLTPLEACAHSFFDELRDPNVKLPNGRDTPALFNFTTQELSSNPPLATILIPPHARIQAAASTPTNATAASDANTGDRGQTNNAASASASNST
- Assay Setup: read-out: GSK3β Ki
Respond with the bare value in nM.

Entry `CC[C@H](C)NC(=O)O[C@@H]1CC[C@H](c2cc(NC(=O)Cc3cc(C)nn3C)n[nH]2)C1` : Ki on GSK3β (H350L) (Homo sapiens (Human)) = 94.4

Bench note, GSK3β (H350L) (Homo sapiens (Human)): entry `COCc1cc(C(=O)Nc2cc([C@H]3CC[C@@H](OC(=O)NC(C)(C)C)C3)[nH]n2)n(C)n1` , its Ki = 772

Readout Ki for `Cc1cnc(CC(=O)Nc2cc([C@H]3CC[C@@H](OC(=O)NCCC(F)(F)F)C3)[nH]n2)o1` , test system GSK3β (H350L) (Homo sapiens (Human)), was 30.6
